Where do these numbers come from? They come from ChEMBL document CHEMBL4346667.

Test system: MCF7
Assay protocol: Antiproliferative activity against human MCF7 cells assessed as reduction in cell viability after 48 hrs by MTT assay
Type: functional, cell-based
Applied conditions: MCF7, 48 h
Mark each entry criterion met if its IC50 sits below 1000 nM, and criterion not met for all others.

{"columns": ["Sample smiles", "Discrete label"],
 "data": [
  ["COc1cc([C@@H]2c3cc4c(cc3[C@H](O)[C@H]3COC(=O)[C@H]23)OCO4)cc(OC)c1OC", "criterion not met"],
  ["COc1cc([C@@H]2c3cc4c(cc3[C@@H](Nc3ccc5ncccc5c3)[C@H]3COC(=O)[C@H]23)OCO4)cc(OC)c1OC", "criterion met"],
  ["COc1cc([C@@H]2c3cc4c(cc3[C@@H](Nc3cccc5[nH]ncc35)[C@H]3COC(=O)[C@H]23)OCO4)cc(OC)c1OC", "criterion not met"],
  ["COc1cc([C@@H]2c3cc4c(cc3[C@@H](Nc3ccc5cc[nH]c5c3)[C@H]3COC(=O)[C@H]23)OCO4)cc(OC)c1OC", "criterion met"],
  ["COc1cc([C@@H]2c3cc4c(cc3[C@@H](Nc3ccc5cn[nH]c5c3)[C@H]3COC(=O)[C@H]23)OCO4)cc(OC)c1OC", "criterion met"],
  ["COc1cc([C@@H]2c3cc4c(cc3[C@@H](Nc3cccc5cn[nH]c35)[C@H]3COC(=O)[C@H]23)OCO4)cc(OC)c1OC", "criterion not met"]
]}
